System: PedE_M.s.
Construct: gene pedE; C-terminal 8xHis tag; codon-optimised gene expressed in Methylorubrum extorquens AM1 (quadruple mutant) with Ca2+; Ni-NTA purified; signal peptide not discussed
Experiment: PMS-mediated DCPIP reduction at […] nm; Michaelis-Menten fit
Format: biochemical
Conditions: PMS 1 mM, DCPIP 150 uM, 45 mM NH4Cl, 100 mM Tris-HCl pH 9.0; optimal conditions (30 °C optimum; general assay text says about 26 °C); Ca2+-PQQ enzyme; read-out: Methylopila sp. M107 / Km
Label yes (1) when Km is at or above 40 µM; otherwise label no (0).

Data request: Please indicate if the recorded Km for CCCO meets or exceeds 40 µM.
Data returned: no (0)

Data request: Please indicate if the recorded Km for CCCCCO meets or exceeds 40 µM.
Data returned: yes (1)

Data request: Please indicate if the recorded Km for CC(C)O meets or exceeds 40 µM.
Data returned: no (0)

Data request: Please indicate if the recorded Km for CO meets or exceeds 40 µM.
Data returned: no (0)

Data request: Please indicate if the recorded Km for CCO meets or exceeds 40 µM.
Data returned: no (0)

Data request: Please indicate if the recorded Km for CCCCCCO meets or exceeds 40 µM.
Data returned: yes (1)
